assay: The cell toxicity on CPII mouse mast cells transfected with TNF-alpha 3' nontranslated sequences reporter gene plasmid; format: cell-based; details: read-out: TC50 (the source's name)
yes (1) if CC50 is below 4 µM. no (0) if not; exact matches included in no (0).

CC50 under 4 µM? Item: CC(C)(C)c1ccc(C2=Cc3ccc(NC(=O)Cc4ccccn4)cc3C3=NCCCN23)cc1
no (0)

***
CC50 under 4 µM? Item: Clc1ccc(OCC2=Cc3ccccc3C3=NCCCN23)cc1
no (0)

CC50 under 4 µM? Item: CCCCC1=C(c2ccc(CCc3ccccc3)cc2)N2CCCN=C2c2ccccc21
yes (1)

CC50 under 4 µM? Item: CC(C)(C)c1ccc(C2=Cc3ccc(N(Cc4ccccc4)Cc4ccccc4)cc3C3=NCCCN23)cc1
yes (1)

CC50 under 4 µM? Item: CCOc1ccc(CC2=C(CCCc3cccc4ccccc34)N3CCCN=C3c3ccccc32)cc1
no (0)

CC50 under 4 µM? Item: C[Si](C)(C)c1ccc(C2=C(Cc3ccccc3)c3ccccc3C3=NCCCN32)cc1
no (0)

CC50 under 4 µM? Item: CC(C)(C)c1ccc(C2=Cc3ccc(N)cc3C3=NCCCN23)cc1
no (0)

CC50 under 4 µM? Item: CC(C)(C)c1ccc(C2=Cc3ccc(NC(=O)Nc4ccc(Cl)cc4Cl)cc3C3=NCCCN23)cc1
no (0)

CC50 under 4 µM? Item: CC(C)(C)c1ccc(C2=Cc3ccc(NC(=O)NC4CCCCC4)cc3C3=NCCCN23)cc1
no (0)

CC50 under 4 µM? Item: C1=C(Cc2ccccc2)c2ccccc2C2=NCCCN12
no (0)

----------
test: The cell toxicity on CPII mouse mast cells transfected with TNF-alpha 3' nontranslated sequences reporter gene plasmid; format: cell-based; conditions: read-out: TC50 (the source's name)
testReadout: CC50 (µM)
Write the value in µM as a bare number.

The following molecules have reported results that may help.
State, in one line, measured CC50 of CCCCC1=C(c2ccc(C(C)(C)C)cc2)N2CCCN=C2c2ccccc21
2.1

State, in one line, measured CC50 of C1=C(c2ccc(OCc3ccccc3)cc2)N2CCCN=C2c2ccccc21
3.5

State, in one line, measured CC50 of CC(C)(C)c1ccc(C2=Cc3ccc(N/C(S)=N/C4CCCCC4)cc3C3=NCCCN23)cc1
9.9

Now let's try a different one.
State, in one line, measured CC50 of C1=C(c2ccc(CCc3ccccc3)cc2)N2CCCN=C2c2ccccc21
2.1

----------
test: The cell toxicity on CPII mouse mast cells transfected with TNF-alpha 3' nontranslated sequences reporter gene plasmid; assay type: cell-based; settings: read-out: TC50 (the source's name)
Condition met if CC50 is below 5 µM. Condition not met if not; exact matches included in Condition not met.

CC50 under 5 µM? Item: N[C@@H](Cc1ccccc1)C1=Cc2ccccc2C2=NCCCN12
Condition not met

CC50 under 5 µM? Item: CN(C)CCC1=C(c2ccc(C(C)(C)C)cc2)N2CCCN=C2c2ccccc21
Condition not met

CC50 under 5 µM? Item: CC(C)(C)c1ccc(C2=Cc3ccccc3C3=NCCCN23)cc1
Condition not met

CC50 under 5 µM? Item: CCOc1ccc(CC2=C(c3ccc(CCc4ccccc4)cc3)N3CCCN=C3c3ccccc32)cc1
Condition not met

***
CC50 under 5 µM? Item: c1ccc(CCc2ccc(C3=C(Cc4ccccc4)c4ccccc4C4=NCCCN43)cc2)cc1
Condition met

CC50 under 5 µM? Item: CCCCCCC1=Cc2ccccc2C2=NCCCN12
Condition not met

CC50 under 5 µM? Item: Clc1ccc(C2=Cc3ccccc3C3=NCCCN23)cc1
Condition not met

CC50 under 5 µM? Item: C[Si](C)(C)c1ccc(C2=Cc3ccccc3C3=NCCCN23)cc1
Condition met

CC50 under 5 µM? Item: C1=C(c2ccccc2)N2CCCN=C2c2ccccc21
Condition not met

CC50 under 5 µM? Item: C1=C(/C=C/c2ccccc2)N2CCCN=C2c2ccccc21
Condition not met

Data origin, for the record: ChEMBL document CHEMBL1131374
